Target of assay: LXRα (Homo sapiens)
Construct: full length (FL) proteins of LXRα (amino acids 1-447); NP005684
Sequence (Q13133 whole entry, the tested form may be a part): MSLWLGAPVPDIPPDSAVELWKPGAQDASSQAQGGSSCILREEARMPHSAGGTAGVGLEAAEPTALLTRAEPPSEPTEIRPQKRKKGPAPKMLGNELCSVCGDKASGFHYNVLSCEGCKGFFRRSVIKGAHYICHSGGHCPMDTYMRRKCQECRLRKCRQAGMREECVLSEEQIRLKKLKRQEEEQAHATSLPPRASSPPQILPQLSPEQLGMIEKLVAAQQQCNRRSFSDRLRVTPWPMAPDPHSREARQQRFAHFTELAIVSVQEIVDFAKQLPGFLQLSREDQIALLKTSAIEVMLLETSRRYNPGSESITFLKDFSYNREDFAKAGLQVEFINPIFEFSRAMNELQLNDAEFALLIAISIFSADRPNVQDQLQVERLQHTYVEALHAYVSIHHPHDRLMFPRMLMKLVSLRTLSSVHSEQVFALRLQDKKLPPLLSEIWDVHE
Assay summary: LXR Gal4 reporter transient transfection assay (mammalian two-hybrid, HEK293), LXRα
Type: cell-based
Condition: HEK293, NCOR recruitment, mean ± SD; read-out: HEK293 LXRα/NCOR recruitment (M2H) EC50
Measure: EC50 (nM)
One number for each entry, in nM.

> print(dat)
                                item.smiles  measure  unit.label  result.value
1  N#Cc1cccc(C#N)c1-c1c(-c2cccc(-c3ccc(C(=O)NCC(=O)O)cc3Cl)c2)n(S(=O)(=O)c2ccc(C(F)F)cc2)c2ccc(F)cc12     EC50          nM             8

Proceeding to the next compound to report its EC50.
Exam item: Reported EC50 for "N#Cc1cccc(C#N)c1-c1c(-c2cccc(-c3ccc(C(=O)O)cc3Cl)c2)n(S(=O)(=O)c2ccc(C(F)F)cc2)c2ccc(F)cc12" : what is it?
Marked response: 0.2

###

Assay summary: Phase 1 study, SAD cohorts: plasma pharmacokinetics
Format: in vivo, human
Condition: both sexes, human, plasma, oral, healthy subjects
Measure: half-life

Exam item: Reported half-life for "N#Cc1cccc(C#N)c1-c1c(-c2cccc(-c3ccc(C(=O)NCC(=O)O)cc3Cl)c2)n(S(=O)(=O)c2ccc(C(F)F)cc2)c2ccc(F)cc12" : what is it?
Marked response: 120 to 180 min

###

Assay summary: Short term HFD mouse model: plasma and liver exposure
Assay type: in vivo
Condition: HFD mice, three oral doses of 10 mg/kg over two days, 4 h after final dose
Measure: liver exposure 4 h

> print(dat)
                                item.smiles        result.value
1  N#Cc1cccc(C#N)c1-c1c(-c2cccc([C@H]3CC[C@H](C(=O)O)CC3)c2)n(S(=O)(=O)c2ccc(C(F)F)cc2)c2ccc(F)cc12  C (1 μM to ≤10 μM)
2  N#Cc1cccc(C#N)c1-c1c(-c2cccc(-c3c(F)cc(C(=O)O)cc3F)c2)n(S(=O)(=O)c2ccc(C(F)F)cc2)c2ccc(F)cc12  C (1 μM to ≤10 μM)
3  N#Cc1cccnc1-c1c(-c2cccc(-c3ccc(C(=O)O)cc3Cl)c2)n(S(=O)(=O)c2ccc(C(F)F)cc2)c2ccc(F)cc12  C (1 μM to ≤10 μM)

###

Target of assay: GST-LXRβ ligand-binding domain (Homo sapiens)
Construct: amino acids 156-461; NP009052
Sequence (P55055 156-460 limits assumed): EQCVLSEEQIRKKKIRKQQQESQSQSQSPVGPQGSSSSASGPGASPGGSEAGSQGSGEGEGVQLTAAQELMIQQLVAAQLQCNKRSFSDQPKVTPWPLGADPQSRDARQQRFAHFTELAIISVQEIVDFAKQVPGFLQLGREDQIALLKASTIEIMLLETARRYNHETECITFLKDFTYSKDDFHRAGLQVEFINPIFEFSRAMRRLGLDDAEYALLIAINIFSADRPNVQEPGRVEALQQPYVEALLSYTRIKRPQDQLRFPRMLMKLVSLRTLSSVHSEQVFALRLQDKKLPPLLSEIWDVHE
Assay summary: TR-FRETβ activity assay (NCoA3 coactivator peptide recruitment)
Condition: 1 μM 24(S)-25-epoxycholesterol prestimulation
Measure: EC50

# count of solved cases: 6
> print(dat)
                                   compound                           target.of.assay  measure  result.value
1  N#Cc1cccc(C#N)c1-c1c(-c2cccc([C@H]3CC[C@@H](C(=O)O)CC3)c2)n(S(=O)(=O)c2ccc(C(F)F)cc2)c2ccc(F)cc12  GST-LXRβ ligand-binding domain (Homo sapiens)     EC50   0.1 to 1 µM
2  N#Cc1cccc(C#N)c1-c1c(-c2cccc(-c3c(F)cc(CC(=O)O)cc3F)c2)n(S(=O)(=O)c2ccc(C(F)F)cc2)c2ccc(F)cc12  GST-LXRβ ligand-binding domain (Homo sapiens)     EC50      < 0.1 µM
3  N#Cc1sccc1-c1c(-c2cccs2)n(S(=O)(=O)C2CCCCC2)c2ccccc12  GST-LXRβ ligand-binding domain (Homo sapiens)     EC50    1 to 10 µM
4  N#Cc1sccc1-c1c(-c2cccc(N3CC(C(=O)O)C3)c2)n(S(=O)(=O)c2ccc(C(F)(F)F)cc2)c2ccc(F)cc12  GST-LXRβ ligand-binding domain (Homo sapiens)     EC50   0.1 to 1 µM
5  N#Cc1cccc(-c2c(-c3cccc(-c4ccc(C(=O)O)cc4Cl)c3)n(S(=O)(=O)c3ccc(C(F)F)cc3)c3ccc(F)cc23)c1  GST-LXRβ ligand-binding domain (Homo sapiens)     EC50      < 0.1 µM
6  Cc1ccc(S(=O)(=O)n2c(-c3cccc(C4(C)CC4C(=O)O)c3)c(-c3ccsc3C#N)c3cc(F)ccc32)cc1 (stereo not shown) [3/2]  GST-LXRβ ligand-binding domain (Homo sapiens)     EC50    1 to 10 µM

Proceeding to the next compound to report its EC50.
Exam item: Reported EC50 for "O=C(O)c1ccc(-c2cccc(-c3c(-c4ccccc4C4(F)CNC4)c4cc(F)ccc4n3S(=O)(=O)c3ccc(C(F)F)cc3)c2)c(Cl)c1" : what is it?
Marked response: 0.1 to 1 µM

Cited source for all entries: patent US20260083704A1
